The origin of these recorded values is PubChem BioAssay AID2060904.

Tested on: 349418-098-R-PDC complex spheroid viability;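 note: spheroids exposed to compound for seven days before viability readout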
PROTOCOL_TEXT: Anticancer human tumor 349418-098-R-PDC patient-derived lung adenocarcinoma cell line growth inhibition [RAS]
CONDITIONS_USED: second compound 0.0949 µM; first compound 3.16 µM; hits give low values
METRIC_NAME: viability, T/C (%)

NC1c2ccccc2OC12CCN(c1cnc3c(N4CCCc5ncccc54)n[nH]c3n1)CC2 (stereo not drawn) + CCn1c(-c2cc(N3CCN(C)CC3)cnc2C(C)OC)c2c3cc(ccc31)-c1csc(n1)CC(NC(=O)C1CC1C)C(=O)N1CCCC(N1)C(=O)OCC(C)(C)C2; 116
CC1(O)CCCC1n1c(=O)c(C(F)F)cc2cnc(NC3CCN(S(C)(=O)=O)CC3)nc21 (stereo not drawn) + CCn1c(-c2cc(N3CCN(C)CC3)cnc2C(C)OC)c2c3cc(ccc31)-c1csc(n1)CC(NC(=O)C1CC1C)C(=O)N1CCCC(N1)C(=O)OCC(C)(C)C2; 21.4
CC1(O)CCCC1n1c(=O)c(C(F)F)cc2cnc(NC3CCN(S(C)(=O)=O)CC3)nc21 (stereo not drawn) + CCn1c(-c2cccnc2C(C)OC)c2c3cc(ccc31)N1CCOC(CC(NC(=O)C(C(C)C)N(C)C(=O)C3(F)CCN(C(=O)C#CC(C)(C)N(C)C)CC3)C(=O)N3CCCC(N3)C(=O)OCC(C)(C)C2)C1; 16.4
C[C@@H](NC(=O)c1ncnc(N)c1Cl)c1ncc(C(=O)Nc2cc(C(F)(F)F)c(Cl)cn2)s1 + CCn1c(-c2cc(N3CCN(C)CC3)cnc2C(C)OC)c2c3cc(ccc31)-c1csc(n1)CC(NC(=O)C1CC1C)C(=O)N1CCCC(N1)C(=O)OCC(C)(C)C2; 20.2
CC(=O)OC12COC1CC(O)C1(C)C(=O)C(O)C3=C(C)C(OC(=O)C(O)C(NC(=O)OC(C)(C)C)c4ccccc4)CC(O)(C(OC(=O)c4ccccc4)C21)C3(C)C (stereo not drawn) + CCn1c(-c2cccnc2C(C)OC)c2c3cc(ccc31)N1CCOC(CC(NC(=O)C(C(C)C)N(C)C(=O)C3(F)CCN(C(=O)C#CC(C)(C)N(C)C)CC3)C(=O)N3CCCC(N3)C(=O)OCC(C)(C)C2)C1; 16.9
C[C@@H](NC(=O)c1ncnc(N)c1Cl)c1ncc(C(=O)Nc2cc(C(F)(F)F)c(Cl)cn2)s1 + CCn1c(-c2cccnc2C(C)OC)c2c3cc(ccc31)N1CCOC(CC(NC(=O)C(C(C)C)N(C)C(=O)C3(F)CCN(C(=O)C#CC(C)(C)N(C)C)CC3)C(=O)N3CCCC(N3)C(=O)OCC(C)(C)C2)C1; 32.5
CC(C)NCC(C(=O)N1CCN(c2ncnc3c2C(C)CC3O)CC1)c1ccc(Cl)cc1 (stereo not drawn) + CCn1c(-c2cccnc2C(C)OC)c2c3cc(ccc31)N1CCOC(CC(NC(=O)C(C(C)C)N(C)C(=O)C3(F)CCN(C(=O)C#CC(C)(C)N(C)C)CC3)C(=O)N3CCCC(N3)C(=O)OCC(C)(C)C2)C1; 24.2
CC(=O)OC12COC1CC(O)C1(C)C(=O)C(O)C3=C(C)C(OC(=O)C(O)C(NC(=O)OC(C)(C)C)c4ccccc4)CC(O)(C(OC(=O)c4ccccc4)C21)C3(C)C (stereo not drawn) + CCn1c(-c2cc(N3CCN(C)CC3)cnc2C(C)OC)c2c3cc(ccc31)-c1csc(n1)CC(NC(=O)C1CC1C)C(=O)N1CCCC(N1)C(=O)OCC(C)(C)C2; 17.3
